Test system: Plasmodium berghei
test.description: Luciferase/luciferin-expressing antifolate-resistant parasites were used to infect a culture of HepG2 cells that were pre-incubated with compounds. Infected hepatocytes emit light due to the luciferase reaction. Assay results are presented as the percent inhibition of light emission compared to control. […]
Format: functional
condition.info: sporozoite, HEPG2TOX_HILL_SLOPE 7.51, HEPG2TOX_R_SQUARED 0.401, PBLUC_HILL_SLOPE 2.56, PBLUC_R_SQUARED 0.302, read-out: LUCIFERASE INFECTION ASSAY - IC50
measured.parameter: pIC50
# log scale: pIC50 equals minus log10 of the concentration in mol/L

Problem: Please report the measured pIC50 for CCN(CC)c1ccc(/C=C(\C#N)C(=O)Nc2cccc(S(=O)(=O)N3CCCCC3)c2)cc1 tested on Plasmodium berghei.
Solution: 5.03

----------
System: Plasmodium berghei
test.description: Luciferase/luciferin-expressing antifolate-resistant parasites were used to infect a culture of HepG2 cells that were pre-incubated with compounds. Infected hepatocytes emit light due to the luciferase reaction. Assay results are presented as the percent inhibition of light emission compared to control. […]
Format: functional
condition.info: sporozoite, read-out: LUCIFERASE INFECTION ASSAY - IC90
measured.parameter: IC90

Problem: Write down IC90 measured for item Cc1ccc2c(Cl)cc(Cl)c(Oc3ncnc4scc(-c5ccc(Cl)cc5)c34)c2n1
Solution: > 10 µM

Problem: Complete the entry with IC90 for C/C(=N\NC(N)=S)c1csc(-c2ccccc2)n1
Solution: 11.9 µM

Problem: Quick one: give measured IC90 for CC(=O)NCc1ccc(-c2csc(NC(=O)CCc3ccco3)n2)cc1
Solution: > 10 µM

Problem: Answer with the recorded IC90 of CC1CC(=O)C2C(=Nc3ccccc3SC2c2ccc(F)cc2)C1 (configuration not stated) only.
Solution: > 9.72 µM

Problem: Return value of IC90 for input CCCCc1noc(C(C)Sc2nc(C(C)(C)C)nc3c2c(=O)n(C)c(=O)n3C)n1 (configuration not stated) , no commentary.
Solution: > 10 µM

Problem: Return IC90 for the following compound: COc1ccc2nc(C(=O)NNC(=O)c3cc(C)oc3C)ccc2c1
Solution: > 10 µM

Problem: Indicate its recorded IC90; the compound in question is CC1CCN(CCCCOc2cccc(Cl)c2)CC1
Solution: > 10 µM

Problem: For the compound COc1ccccc1-n1c(SCC(=O)NNC(=O)c2ccc([N+](=O)[O-])cc2)nc2ccccc2c1=O , report IC90.
Solution: > 10 µM

***
Problem: Provide one value: measured IC90 of O=C1C(=O)N(CCN2CCCCC2)c2ccc(F)cc21
Solution: > 11.9 µM

Problem: Input CCN(CC)c1ccc2cc(/C=N/NC(=O)C34CC5CC(CC(C5)C3)C4)c(=O)oc2c1 , output reported IC90.
Solution: > 10 µM

Problem: Look up IC90 of Cc1ccc(OCC(O)CN2CCc3ccccc3C2)c(C)c1 (configuration not stated) and report it.
Solution: > 9.49 µM

----------
System: Plasmodium berghei
test.description: Luciferase/luciferin-expressing antifolate-resistant parasites were used to infect a culture of HepG2 cells that were pre-incubated with compounds. Infected hepatocytes emit light due to the luciferase reaction. Assay results are presented as the percent inhibition of light emission compared to control. […]
Format: functional
condition.info: sporozoite, HEPG2TOX_HILL_SLOPE 8.23, HEPG2TOX_R_SQUARED 0.589, PBLUC_HILL_SLOPE 26.6, PBLUC_R_SQUARED 0.272, read-out: LUCIFERASE INFECTION ASSAY - IC50
measured.parameter: IC50 (µM)
Field: numeric (µM). Do not append units.

Problem: Specify measured IC50 for O=C(/C=C/c1ccccc1OC(F)F)N(Cc1ccccc1)c1nnc(SC(F)F)s1 .
Solution: 3.31
